- study_target: human full length active PARP2 (Homo sapiens, UniProt Q9UGN5)
- Construct: human full length active PARP1 (CS207770, Merck), PARP2 (ab198766, Abeam); purchased Abcam ab198766
- Sequence (Q9UGN5 whole entry): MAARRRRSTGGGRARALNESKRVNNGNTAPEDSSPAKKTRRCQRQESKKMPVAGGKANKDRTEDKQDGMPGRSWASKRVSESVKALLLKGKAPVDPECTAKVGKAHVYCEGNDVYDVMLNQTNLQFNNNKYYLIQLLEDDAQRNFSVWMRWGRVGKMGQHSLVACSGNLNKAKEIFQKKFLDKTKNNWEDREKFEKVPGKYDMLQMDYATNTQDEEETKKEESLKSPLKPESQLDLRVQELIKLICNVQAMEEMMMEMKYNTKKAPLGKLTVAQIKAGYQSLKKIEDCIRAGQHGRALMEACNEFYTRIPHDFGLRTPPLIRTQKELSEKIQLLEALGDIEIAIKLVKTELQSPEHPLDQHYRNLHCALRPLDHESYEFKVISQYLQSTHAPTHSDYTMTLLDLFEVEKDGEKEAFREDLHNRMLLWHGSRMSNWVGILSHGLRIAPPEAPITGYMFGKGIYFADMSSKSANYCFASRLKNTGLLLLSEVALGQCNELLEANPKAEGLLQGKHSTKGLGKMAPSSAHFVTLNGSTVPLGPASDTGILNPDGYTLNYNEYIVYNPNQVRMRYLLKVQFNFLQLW
- protocol_text: PARP inhibitor assay, fluorescence-based, PARP2
- Type: biochemical
value_type: IC50 (µM)
Give bare numbers, in µM.

human full length active PARP2 (Homo sapiens, UniProt Q9UGN5) assay, compound CN(C)c1ccc(O)c2c1C[C@H]1C[C@H]3[C@H](N(C)C)C(O)=C(C(N)=O)C(=O)[C@@]3(O)C(O)=C1C2=O [minocycline] , recorded IC50 = 2.8

====

- study_target: human full length active PARP1 (Homo sapiens, UniProt P09874)
- Construct: human full length active PARP1 (CS207770, Merck); purchased Merck CS207770
- Sequence (P09874 whole entry): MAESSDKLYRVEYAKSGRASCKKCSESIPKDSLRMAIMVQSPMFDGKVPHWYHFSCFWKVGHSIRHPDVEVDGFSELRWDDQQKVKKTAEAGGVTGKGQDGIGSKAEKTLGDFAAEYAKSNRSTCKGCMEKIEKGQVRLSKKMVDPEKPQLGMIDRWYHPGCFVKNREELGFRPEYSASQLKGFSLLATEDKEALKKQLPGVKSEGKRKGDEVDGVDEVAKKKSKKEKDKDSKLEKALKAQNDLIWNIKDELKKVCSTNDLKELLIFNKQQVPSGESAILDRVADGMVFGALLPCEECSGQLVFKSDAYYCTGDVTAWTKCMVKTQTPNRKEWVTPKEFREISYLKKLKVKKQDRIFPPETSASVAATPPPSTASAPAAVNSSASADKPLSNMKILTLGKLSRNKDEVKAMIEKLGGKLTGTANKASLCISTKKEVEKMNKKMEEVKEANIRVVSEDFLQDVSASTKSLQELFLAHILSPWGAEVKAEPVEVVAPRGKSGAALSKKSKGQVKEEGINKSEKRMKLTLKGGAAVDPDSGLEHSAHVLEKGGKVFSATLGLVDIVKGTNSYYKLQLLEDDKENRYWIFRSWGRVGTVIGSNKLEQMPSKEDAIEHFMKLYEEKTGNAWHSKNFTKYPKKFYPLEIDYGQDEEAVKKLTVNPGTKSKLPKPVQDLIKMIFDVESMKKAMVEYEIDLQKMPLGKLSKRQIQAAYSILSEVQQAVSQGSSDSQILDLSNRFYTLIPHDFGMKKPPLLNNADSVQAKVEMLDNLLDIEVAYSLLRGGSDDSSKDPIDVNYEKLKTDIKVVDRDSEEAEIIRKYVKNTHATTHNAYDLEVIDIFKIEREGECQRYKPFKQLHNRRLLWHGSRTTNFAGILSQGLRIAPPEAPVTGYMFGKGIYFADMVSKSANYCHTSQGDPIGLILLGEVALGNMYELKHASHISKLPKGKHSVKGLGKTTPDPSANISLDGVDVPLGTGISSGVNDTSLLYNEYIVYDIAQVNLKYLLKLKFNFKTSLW
- protocol_text: PARP inhibitor assay, fluorescence-based (PARP1 Enzyme Activity Assay kit), PARP1
- Type: biochemical
- measurement_conditions: inhibition of DNA-dependent activity (controls 1 and 3); 60 μM β-NAD; activated DNA; read-out: IC50 PARP1
value_type: pIC50
One number for each entry, as −log10 of the molar value.

Value of pIC50 reported for the compound CC(=O)OC[C@H]1O[C@@H]([S-])[C@H](OC(C)=O)[C@@H](OC(C)=O)[C@@H]1OC(C)=O.CCP(CC)CC.[Au+] is 5.85

====

- study_target: human full length active PARP1 (Homo sapiens, UniProt P09874)
- Construct: human full length active PARP1 (CS207770, Merck); purchased Merck CS207770
- protocol_text: PARP inhibitor assay, fluorescence-based (PARP1 Enzyme Activity Assay kit), PARP1
- Type: biochemical
- measurement_conditions: assay of Example 1, FIG. 6; read-out: IC50 PARP1
value_type: pIC50
Give bare numbers, as −log10 of the molar value.

human full length active PARP1 (Homo sapiens, UniProt P09874) assay, compound CN(C)c1ccc(O)c2c1C[C@H]1C[C@H]3[C@H](N(C)C)C(O)=C(C(N)=O)C(=O)[C@@]3(O)C(O)=C1C2=O , recorded pIC50 = 3.69

====

I'd be grateful if you could share measured IC50 for these entries.
- study_target: human full length active PARP2 (Homo sapiens, UniProt Q9UGN5)
- Construct: human full length active PARP1 (CS207770, Merck), PARP2 (ab198766, Abeam); purchased Abcam ab198766
- protocol_text: PARP inhibitor assay, fluorescence-based, PARP2
- Type: biochemical
- measurement_conditions: inhibition of total PARP2 activity (controls 1 and 2); 60 μM β-NAD; read-out: IC50 PARP2
- Method: The PARP inhibitor assay is a direct fluorescence-based concentration measurement of reaction product formation. […] PARP activity and inhibition was measured for human full length active PARP1 (CS207770, Merck), PARP2 (ab198766, Abeam) and PARP3 (ab79638, Abeam) proteins. […] Total PARP1/2/3 activity was calculated as a difference between control (1) and control (2). DNA-independent activity was calculated as a difference between control (1) and control (3). […]
Numbers only, in µM.

OC[C@H]1OC([S][Au])[C@H](O)[C@@H](O)[C@@H]1O (some centres unmarked) [Aurothioglucose]; 4.45

Turning now to a further compound:
Value of IC50 reported for the compound CC(=O)OC[C@H]1O[C@@H]([S-])[C@H](OC(C)=O)[C@@H](OC(C)=O)[C@@H]1OC(C)=O.CCP(CC)CC.[Au+] [Auranofin] is 1.16
